Test system: Plasmodium berghei
PROTOCOL TEXT: Screen against P. berghei liver stage (PbLuc), transformed with Luciferase, at 10uM
Assay type: functional, HepG2
CONDITIONS USED: tested at 10 uM
Screen size: about 69,000 compounds; about 8,600 (12%) showed an effect of 50% or more. This excerpt belongs to a sample that is enriched for strong results.
Here, each record is paired with measured INHIBITION data.
# number only, unit % dropped from output

Enter measured INHIBITION, system Plasmodium berghei, for the compound shown: CCn1ccc(-c2cc(C(=O)O)n3nc(C)c(Cl)c3n2)n1
12.3

Enter measured INHIBITION, system Plasmodium berghei, for the compound shown: CCc1nnc(CN(C)c2nc(C(C)C)nc3c2cnn3C)o1
53.5

Enter measured INHIBITION, system Plasmodium berghei, for the compound shown: O=S(=O)(c1cncc(F)c1)N1CCC2(CCOC2)C1 (stereo unspecified)
-15.4

Enter measured INHIBITION, system Plasmodium berghei, for the compound shown: CCN(C)c1ncnc2c1CCN(C(=O)NCc1cccnc1)CC2
-75.9

Enter measured INHIBITION, system Plasmodium berghei, for the compound shown: CN(Cc1ccc(Cl)s1)C(=O)CN(C)C1CCCc2ccccc21 (stereo unspecified)
85.9

Enter measured INHIBITION, system Plasmodium berghei, for the compound shown: O=C(NCc1ccccc1Cn1cncn1)C1CC1
49.8

----------
System: Plasmodium berghei
PROTOCOL TEXT: Screen against P. berghei liver stage (PbLuc), transformed with Luciferase, at 10uM
Format: functional, HepG2
CONDITIONS USED: tested at 10 uM
Out of some 69,000 compounds screened, about 8,600 (12%) showed an effect of 50% or more. This is one part of a sample in which strong results are shown more often than they occur.
Here, each record is paired with measured INHIBITION data.
Number first, unit second: that is the form wanted.

Worked examples follow.
Cc1cc(N(C)C)nc(N2CCCC2c2ccccn2)n1 (stereo not given) | -30%
CCC(CO)N(Cc1cccs1)C(=O)Cc1ccc(O)cc1 (stereo not given) | 71.1%
Cc1nc(C(=O)N2CCN(C(=O)C3CCC3)[C@@H]3CS(=O)(=O)C[C@@H]32)cs1 | 33.1%
CCN1CCc2c(CNC(=O)c3nccn3C)cncc2C1 | 35.8%

Enter measured INHIBITION, system Plasmodium berghei, for the molecule shown: COCCCN1Cc2cccc(NC(=O)c3ccccc3C)c2C1
40.6%

Enter measured INHIBITION, system Plasmodium berghei, for the molecule shown: COCCCN1Cc2cccc(NC(=O)c3ccccc3Cl)c2C1
50%

Enter measured INHIBITION, system Plasmodium berghei, for the molecule shown: COCCn1c(=O)n(Cc2ccccc2C)c2cc(C(=O)O)ccc21
29%

Enter measured INHIBITION, system Plasmodium berghei, for the molecule shown: CCC(CO)N(Cc1cccs1)C(=O)CSC (stereo not given)
-36.3%

Enter measured INHIBITION, system Plasmodium berghei, for the molecule shown: CN1C(=O)CC(C(=O)O)C12CCN(Cc1ccc(F)cc1Cl)CC2 (stereo not given)
18.8%

Enter measured INHIBITION, system Plasmodium berghei, for the molecule shown: Cc1cc(C(=O)N[C@H]2CN(CCO)C[C@@H]2C2CC2)sc1C
44%

Enter measured INHIBITION, system Plasmodium berghei, for the molecule shown: CCC(CO)N(Cc1cccs1)C(=O)Cc1ccncc1 (stereo not given)
41.4%

----------
Tested on: Plasmodium berghei
PROTOCOL TEXT: Screen against P. berghei liver stage (PbLuc), transformed with Luciferase, at 10uM
Format: functional, HepG2
CONDITIONS USED: tested at 10 uM
About 8,600 (12%) of roughly 69,000 compounds showed an effect of 50% or more. The sample as a whole holds a higher share of strong results than the screen did.
Binary call on INHIBITION with cut-off 20%: strictly below means 1 (yes), and equality or higher means 0 (no).

Some entries whose results are on file:
CCn1c(CNCC2CCCN2c2cccnn2)nc2ccccc21 (stereo not drawn) | 1 (yes)
O=C(NCCO)C1CN(c2cncnc2)CCO1 (stereo not drawn) | 1 (yes)
O=C(c1cnccn1)N1CCCC2(CCN(Cc3ccc(F)cc3)C2)C1 (stereo not drawn) | 1 (yes)
CCCN1CCN(C(=O)c2ccn(COc3ccc(F)cc3)n2)CC1 | 1 (yes)
CCN(CC(=O)Nc1cc(Cl)ccc1C)C(=O)c1ccc(=O)[nH]n1 | 0 (no)

For Cc1cnn(CC(C)Nc2nc(C)cc(N(C)C)n2)c1 (stereo not drawn) , is the recorded INHIBITION below the cut-off of 20%?
1 (yes)

For O=C(O)[C@H]1C[C@H](C(=O)NCc2ccncc2)CN(CCC(F)(F)F)C1 , is the recorded INHIBITION below the cut-off of 20%?
1 (yes)

For CCOc1cc([C@@H]2N[C@H](c3nccs3)Cc3ccsc32)ccc1OC , is the recorded INHIBITION below the cut-off of 20%?
0 (no)

----------
Here, each record is paired with measured INHIBITION data.
Test system: Plasmodium berghei
PROTOCOL TEXT: Screen against P. berghei liver stage (PbLuc), transformed with Luciferase, at 10uM
Assay type: functional, HepG2
CONDITIONS USED: tested at 10 uM
Among all 69,000 compounds or so, about 8,600 (12%) showed an effect of 50% or more. Shown is part of a subset that was picked to be rich in strong results.
# number only, unit % dropped from output

O=C(Nc1ccc(-c2csnn2)cc1)NC(CCO)C1CC1 (stereo unspecified) | 6.11

Indicate its recorded INHIBITION; the compound in question is Cc1cc(C(=O)N(C)Cc2ccn[nH]2)c(NC(=O)C(C)(C)C)s1
51.3

Indicate its recorded INHIBITION; the compound in question is Cc1ccc(C)c(-n2nnnc2SCN2CCCCC2=O)c1
13.7

Indicate its recorded INHIBITION; the compound in question is CC(C)c1nnc(NC(=O)NCc2cccnc2NCCN(C)C)s1
25.7

Indicate its recorded INHIBITION; the compound in question is CCN(CC)C(=O)COc1nc(C(C)C)no1
53.1

Indicate its recorded INHIBITION; the compound in question is Cc1cc(Oc2ccccc2C)nc(C2CCCN2)n1 (stereo unspecified)
4.41

Indicate its recorded INHIBITION; the compound in question is CC(NCc1ccc(OCc2nccn2C)cc1)c1cccnc1 (stereo unspecified)
-63.6

Indicate its recorded INHIBITION; the compound in question is CC(C)NC(=O)N1CCC2(CC1)CN(C(=O)NC(C)C)CCO2
11.8

Indicate its recorded INHIBITION; the compound in question is Cc1cc(C(=O)N(C)Cc2ccoc2)c(NC(=O)C(C)(C)C)s1
-28.9

Indicate its recorded INHIBITION; the compound in question is O=C(NC[C@]1(O)CCN(Cc2ccsc2)C[C@H]1O)c1c[nH]cn1
-0.275

Indicate its recorded INHIBITION; the compound in question is Cc1nn(C)c(C)c1C(=O)NCc1cccnc1OC1CCCC1
37.6

Indicate its recorded INHIBITION; the compound in question is Cn1cc(N2C[C@@H]3CN(Cc4ccccn4)C[C@@H]3C2=O)cn1
34.9

----------
Here, each record is paired with measured INHIBITION data.
Test system: Plasmodium berghei
PROTOCOL TEXT: Screen against P. berghei liver stage (PbLuc), transformed with Luciferase, at 10uM
Format: functional, HepG2
CONDITIONS USED: tested at 10 uM
Screen size: about 69,000 compounds; about 8,600 (12%) showed an effect of 50% or more. Only a selection was taken, and strong results are over-represented in it overall.
# number only, unit % dropped from output

CNc1nc(C2CCCN(C(=O)CNC(C)=O)C2)nc2c1CN(C)CC2 (centres undefined) | 42.4
COCCN1CCc2cc(C(=O)N(C)C)c(NC(C)C)nc2CC1 | 18.1
O=S(=O)(NCc1ccccc1Cn1cncn1)N1CCCCCC1 | 34.7

Turning now to a further compound:
Indicate its recorded INHIBITION; the compound in question is CC(C)Nc1nc2c(cc1C(=O)NCC1CC1)CCN(S(C)(=O)=O)CC2
-39.1

----------
Test system: Plasmodium berghei
PROTOCOL TEXT: Screen against P. berghei liver stage (PbLuc), transformed with Luciferase, at 10uM
Type: functional, HepG2
CONDITIONS USED: tested at 10 uM
The whole screen tested about 69,000 compounds, of which about 8,600 (12%) showed an effect of 50% or more. The full list was thinned out, with strong results kept by preference.
PROPERTY MEASURED: INHIBITION (%)
# number only, unit % dropped from output

Worked examples follow.
COCc1cc(N2CCOC(c3ccc(Cl)c(Cl)c3)C2)ncn1 (configuration not stated) | 63.1
Cc1nc(CN2C[C@@H]3CN(C(=O)C4CC4)C[C@@H]3C2=O)cs1 | 42.6
O=C(NCc1ccc2c(c1)OCO2)c1ccc(N2CCCCCC2)nc1 | -4.99
Cn1cc(C(=O)NCCc2csc(-c3ccccc3)n2)ccc1=O | -8.92
CCN1CCN(Cc2nc(CC(C)C)no2)CC1 | 16.45
CCOCC1CCCN(C(=O)NCc2cn3c(C)cccc3n2)C1 (configuration not stated) | 21.6
Cn1nc(C2CCCC2)c(-c2ccc3c(c2)OCO3)c1N | 48
CC(C)c1nc(-c2cc(C(=O)N3CCN(C)CC3)c3ccccn23)cs1 | 10.5

Turning now to a further compound:
Indicate its recorded INHIBITION; the compound in question is Cc1nsc(NC(=O)N2CCCCC2CCCO)n1 (configuration not stated)
48

Each recorded value in this set is attributed to ChEMBL document CHEMBL4513216.
